Target: PDGFRβ (Homo sapiens)
Sequence (P09619 33-1106): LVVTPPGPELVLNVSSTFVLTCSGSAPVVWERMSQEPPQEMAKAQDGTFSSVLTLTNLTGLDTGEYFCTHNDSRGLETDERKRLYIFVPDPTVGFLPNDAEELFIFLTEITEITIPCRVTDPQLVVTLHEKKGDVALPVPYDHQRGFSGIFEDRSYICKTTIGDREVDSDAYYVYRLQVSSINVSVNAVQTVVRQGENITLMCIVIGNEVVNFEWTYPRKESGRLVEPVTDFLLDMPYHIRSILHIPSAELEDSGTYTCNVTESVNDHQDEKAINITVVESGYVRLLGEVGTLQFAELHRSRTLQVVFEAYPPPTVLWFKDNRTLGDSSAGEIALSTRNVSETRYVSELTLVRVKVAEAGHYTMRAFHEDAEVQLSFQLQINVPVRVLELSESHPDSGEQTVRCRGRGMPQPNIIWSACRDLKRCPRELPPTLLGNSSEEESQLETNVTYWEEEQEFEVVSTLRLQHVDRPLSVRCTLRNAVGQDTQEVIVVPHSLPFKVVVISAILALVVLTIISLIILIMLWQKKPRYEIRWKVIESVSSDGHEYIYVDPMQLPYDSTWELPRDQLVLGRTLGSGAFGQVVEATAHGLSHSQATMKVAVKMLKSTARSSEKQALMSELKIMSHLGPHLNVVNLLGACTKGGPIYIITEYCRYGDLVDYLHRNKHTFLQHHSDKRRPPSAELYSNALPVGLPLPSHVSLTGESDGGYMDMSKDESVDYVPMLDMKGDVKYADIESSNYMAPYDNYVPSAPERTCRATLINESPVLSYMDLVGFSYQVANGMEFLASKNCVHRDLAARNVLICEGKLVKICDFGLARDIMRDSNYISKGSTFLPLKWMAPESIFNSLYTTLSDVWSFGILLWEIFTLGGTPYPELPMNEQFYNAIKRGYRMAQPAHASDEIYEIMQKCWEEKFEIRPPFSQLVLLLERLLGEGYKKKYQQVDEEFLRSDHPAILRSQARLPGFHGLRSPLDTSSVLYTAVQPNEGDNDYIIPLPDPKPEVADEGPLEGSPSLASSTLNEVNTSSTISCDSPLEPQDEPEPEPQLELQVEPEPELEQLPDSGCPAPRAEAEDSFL
pIC50: −log10 of the molar value.
measured attribute: pIC50

smiles_input=CC[C@H](C)[C@@H]1NC(=O)[C@H](Cc2ccccc2)NC(=O)c2cccc(n2)C(=O)N[C@@H](Cc2ccccc2)C(=O)N[C@@H]([C@@H](C)CC)C(=O)N[C@H](C(=O)O)CCCCNC1=O system_name="PDGFRβ (Homo sapiens)" measured_attribute=pIC50 value_reported=7.10

---

Target: EGFR (Homo sapiens, UniProt P00533)
Sequence (P00533 25-1210): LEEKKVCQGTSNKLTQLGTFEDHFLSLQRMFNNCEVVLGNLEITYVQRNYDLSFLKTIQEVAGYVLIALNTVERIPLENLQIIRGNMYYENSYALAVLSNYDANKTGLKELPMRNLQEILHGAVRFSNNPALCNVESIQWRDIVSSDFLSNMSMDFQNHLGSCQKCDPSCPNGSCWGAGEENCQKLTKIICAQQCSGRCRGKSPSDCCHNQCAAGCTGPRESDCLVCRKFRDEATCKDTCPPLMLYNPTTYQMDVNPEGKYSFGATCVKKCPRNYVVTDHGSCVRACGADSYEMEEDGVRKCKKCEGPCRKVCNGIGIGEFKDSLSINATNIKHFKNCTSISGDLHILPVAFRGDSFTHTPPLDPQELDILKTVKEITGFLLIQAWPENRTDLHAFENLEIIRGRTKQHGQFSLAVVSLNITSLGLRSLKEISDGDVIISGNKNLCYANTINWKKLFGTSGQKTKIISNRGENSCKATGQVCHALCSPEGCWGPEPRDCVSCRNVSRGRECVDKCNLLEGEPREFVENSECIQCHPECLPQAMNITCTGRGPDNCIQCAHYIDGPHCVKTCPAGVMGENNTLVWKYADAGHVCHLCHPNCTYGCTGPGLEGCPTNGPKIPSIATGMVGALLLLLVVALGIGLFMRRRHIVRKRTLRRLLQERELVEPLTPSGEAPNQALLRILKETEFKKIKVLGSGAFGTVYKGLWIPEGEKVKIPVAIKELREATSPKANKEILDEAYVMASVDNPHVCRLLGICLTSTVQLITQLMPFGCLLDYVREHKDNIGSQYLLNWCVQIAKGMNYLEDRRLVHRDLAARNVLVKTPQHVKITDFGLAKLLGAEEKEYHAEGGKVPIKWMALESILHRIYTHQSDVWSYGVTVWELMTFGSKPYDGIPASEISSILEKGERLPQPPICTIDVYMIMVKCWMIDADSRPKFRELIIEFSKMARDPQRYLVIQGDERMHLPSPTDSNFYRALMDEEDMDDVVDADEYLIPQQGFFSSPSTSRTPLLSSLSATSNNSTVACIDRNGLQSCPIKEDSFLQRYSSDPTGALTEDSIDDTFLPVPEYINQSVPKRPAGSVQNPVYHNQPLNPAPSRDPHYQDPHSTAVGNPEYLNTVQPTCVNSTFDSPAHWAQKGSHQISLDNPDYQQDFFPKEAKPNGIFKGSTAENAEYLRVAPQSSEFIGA
measured attribute: IC50

smiles_input=CC[C@H](C)[C@@H]1NC(=O)[C@H](Cc2ccccc2)NC(=O)c2cccc(n2)C(=O)N[C@@H](Cc2ccccc2)C(=O)N[C@@H]([C@@H](C)CC)C(=O)N[C@H](C(=O)O)CCCCNC1=O value_reported="0.14 µM"

---

Tested on: HepG-2 cell line
Assay: In vitro cytotoxicity on HepG-2 cell line
Assay type: cell-based
Settings: HepG2; HepG-2 human hepatocellular carcinoma cells; concentration inhibiting cell viability by 50%; mean of three values; read-out: IC50 (Mean ± SEM) HepG-2
measured attribute: IC50 (µM)

compound="O=c1[nH]cc(F)c(=O)[nH]1 [5-Fluorouracil®, 5-Fluorouracil, reference compound]" readout_units=µM value_reported=43.8

---

Test system: HepG-2 cell line
Assay: In vitro cytotoxicity on HepG-2 cell line
Type: cell-based
Conditions: HepG-2 human hepatocellular carcinoma cells; concentration inhibiting cell viability by 50%; mean of three values; read-out: IC50 (Mean ± SEM) HepG-2
pIC50: −log10 of the molar value.
The following compounds are shown together with reported pIC50 values.
measured attribute: pIC50

smiles_input=CC[C@H](C)[C@@H]1NC(=O)[C@H](Cc2ccccc2)NC(=O)c2cccc(n2)C(=O)N[C@@H](Cc2ccccc2)C(=O)N[C@@H]([C@@H](C)CC)C(=O)N[C@H](C(=O)OC)CCCCNC1=O measured_attribute=pIC50 value_reported=4.72
smiles_input=CC[C@H](C)[C@H](NC(=O)c1cccc(C(=O)N[C@H](C(=O)N[C@@H](Cc2ccccc2)C(=O)OC)[C@@H](C)CC)n1)C(=O)N[C@@H](Cc1ccccc1)C(=O)OC measured_attribute=pIC50 value_reported=4.80
smiles_input=CC[C@H](C)[C@@H]1NC(=O)c2cccc(n2)C(=O)N[C@@H]([C@@H](C)CC)C(=O)N[C@@H](Cc2ccccc2)C(=O)N[C@H](C(=O)OC)CCCCNC(=O)[C@H](Cc2ccccc2)NC1=O measured_attribute=pIC50 value_reported=4.99
smiles_input=CC[C@H](C)[C@H](NC(=O)[C@H](Cc1ccccc1)NC(=O)c1cccc(C(=O)N[C@@H](Cc2ccccc2)C(=O)N[C@H](C(=O)OC)[C@@H](C)CC)n1)C(=O)OC measured_attribute=pIC50 value_reported=4.45
smiles_input=CC[C@H](C)[C@@H]1NC(=O)[C@H](Cc2ccccc2)NC(=O)c2cccc(n2)C(=O)N[C@@H](Cc2ccccc2)C(=O)N[C@@H]([C@@H](C)CC)C(=O)N[C@H](C(=O)NN)CCCCNC1=O measured_attribute=pIC50 value_reported=4.92
smiles_input=CC[C@H](C)[C@@H]1NC(=O)c2cccc(n2)C(=O)N[C@@H]([C@@H](C)CC)C(=O)N[C@@H]([C@@H](C)CC)C(=O)N[C@H](C(=O)O)CCCCNC(=O)[C@H]([C@@H](C)CC)NC1=O measured_attribute=pIC50 value_reported=4.95
smiles_input=CC[C@H](C)[C@@H]1NC(=O)c2cccc(n2)C(=O)N[C@@H]([C@@H](C)CC)C(=O)N[C@@H](Cc2ccccc2)C(=O)N[C@H](C(=O)O)CCCCNC(=O)[C@H](Cc2ccccc2)NC1=O measured_attribute=pIC50 value_reported=5.00
smiles_input=CC[C@H](C)[C@@H]1NC(=O)c2cccc(n2)C(=O)N[C@@H]([C@@H](C)CC)C(=O)N[C@@H]([C@@H](C)CC)C(=O)N[C@H](C(=O)NN)CCCCNC(=O)[C@H]([C@@H](C)CC)NC1=O measured_attribute=pIC50 value_reported=4.91

Taken from paper PMC6222410.
